This collection of values is drawn from PubChem BioAssay AID1159580.

test_name: chemical genetic growth profiling, strain panel (AID 1159580);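 further: tested at 20 µM; growth read once vehicle control cultures reached saturation at 30 °C; 1 = growth at the plate median or of vehicle wells; lower values mean less growth of the strain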
condition: S. cerevisiae deletion strains, growth OD, locus YLR418C, strain cdc73, active compounds read low
Hit rate of the full screen: of about 5,500 compounds, about 2,000 (36%) were called active. Roughly 18% stayed inconclusive and do not appear here. Some of the results follow.
Kindly state normalized growth for each of the entries shown.
Would you mind answering with just the numeric figure?

Entry Cc1ncc([N+](=O)[O-])n1CCO — recorded normalized growth = 0.991

Entry CN1CCN(CCCN2c3ccccc3Sc3ccc(Cl)cc32)CC1 — recorded normalized growth = 0.25

Entry OCCN1CCN(CCCN2c3ccccc3Sc3ccc(Cl)cc32)CC1 — recorded normalized growth = 0.894

Entry CCNc1nc(Cl)nc(NC(C)C)n1 — recorded normalized growth = 1.04

Entry CN(C)c1nc(N(C)C)nc(N(C)C)n1 — recorded normalized growth = 1.05

Entry O=c1[nH]cnc2nc[nH]c12 — recorded normalized growth = 0.994

Entry CCOC(=O)C1=C(C)NC(C)=C(C(=O)OC)C1c1cccc([N+](=O)[O-])c1 (configuration not stated) — recorded normalized growth = 0.967

Entry CC(=O)O[C@@H]1CC2C(C)(C)C(=O)[C@@H]3O[C@@H]3[C@]2(C)C2CC[C@]3(C)C(=CC(=O)O[C@H]3c3ccoc3)[C@@]21C (some centres not stated) — recorded normalized growth = 0.993

Entry c1coc(CNc2ncnc3nc[nH]c23)c1 — recorded normalized growth = 1

Entry Nc1ncnc2nc[nH]c12 — recorded normalized growth = 0.612

Entry N#C/C(=C\c1ccc(O)cc1)C(=O)O — recorded normalized growth = 0.953

Entry N#Cc1ccc2c(c1)N(CCCN1CCC(O)CC1)c1ccccc1S2 — recorded normalized growth = 1
